The measurements presented in this section are drawn from ChEMBL document CHEMBL4715878.

Biological target: UniProt:Q15303
Sequence (Q15303 whole entry): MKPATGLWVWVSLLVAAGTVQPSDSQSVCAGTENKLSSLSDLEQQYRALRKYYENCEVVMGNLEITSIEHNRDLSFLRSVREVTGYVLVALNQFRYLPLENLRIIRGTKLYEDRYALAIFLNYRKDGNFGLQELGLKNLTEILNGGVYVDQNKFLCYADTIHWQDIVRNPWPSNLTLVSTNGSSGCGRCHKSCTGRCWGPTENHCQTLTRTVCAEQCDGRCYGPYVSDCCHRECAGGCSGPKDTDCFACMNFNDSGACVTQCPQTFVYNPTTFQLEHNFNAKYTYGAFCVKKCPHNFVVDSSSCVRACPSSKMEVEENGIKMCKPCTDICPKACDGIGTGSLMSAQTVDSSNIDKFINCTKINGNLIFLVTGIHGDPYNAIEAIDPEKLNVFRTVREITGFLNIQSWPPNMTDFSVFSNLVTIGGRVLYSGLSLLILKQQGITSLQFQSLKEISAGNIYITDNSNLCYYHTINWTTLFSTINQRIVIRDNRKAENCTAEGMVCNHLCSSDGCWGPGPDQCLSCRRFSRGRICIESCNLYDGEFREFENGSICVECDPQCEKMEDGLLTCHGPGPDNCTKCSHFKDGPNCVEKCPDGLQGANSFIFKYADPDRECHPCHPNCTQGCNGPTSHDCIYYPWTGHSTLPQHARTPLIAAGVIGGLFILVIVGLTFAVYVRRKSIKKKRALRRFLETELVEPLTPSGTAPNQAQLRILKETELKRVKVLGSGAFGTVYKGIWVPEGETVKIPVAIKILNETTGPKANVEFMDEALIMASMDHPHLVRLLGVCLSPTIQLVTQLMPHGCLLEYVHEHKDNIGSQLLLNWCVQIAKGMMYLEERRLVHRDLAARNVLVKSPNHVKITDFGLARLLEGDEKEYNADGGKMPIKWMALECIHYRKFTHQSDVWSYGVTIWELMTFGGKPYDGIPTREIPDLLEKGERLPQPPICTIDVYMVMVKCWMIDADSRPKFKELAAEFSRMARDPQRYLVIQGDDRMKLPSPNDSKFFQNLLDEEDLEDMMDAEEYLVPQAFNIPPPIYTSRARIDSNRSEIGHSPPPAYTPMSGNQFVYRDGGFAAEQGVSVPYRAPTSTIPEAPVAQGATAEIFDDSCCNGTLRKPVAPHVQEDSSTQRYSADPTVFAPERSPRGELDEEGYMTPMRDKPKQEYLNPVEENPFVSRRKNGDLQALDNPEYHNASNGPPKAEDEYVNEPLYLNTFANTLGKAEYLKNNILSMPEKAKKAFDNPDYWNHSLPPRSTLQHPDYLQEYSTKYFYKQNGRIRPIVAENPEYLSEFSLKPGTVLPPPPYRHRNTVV
Assay: Effect on human recombinant N-terminal GST-tagged HER4 (682 to 993) expressed in baculovirus infected Sf9 insect cells in presence of substrate and [gamma-32ATP] at 10 uM incubated for 30 mins by scintillation counting based radiometry assay relative to control
Conditions: 0.5 h, read-out: Activity
Record form. Attribute: activity at 10 µM. Fill in for each entry.

QUERY: Can you look up the measured activity at 10 µM of `CNC(=O)c1cc(Oc2ccc(NC(=O)Nc3ccc(Cl)c(C(F)(F)F)c3)cc2)ccn1` for me?
RESULT: -60%

QUERY: Repeat for the following compound: `Cc1cccc(Oc2ccc(Nc3ncnc4ccc(NC(=O)CNCCO)cc34)cc2Cl)c1`
RESULT: -99%

QUERY: Entry `CN1CCN(CCCOc2ccc3ncnc(Nc4ccc(Oc5cccc(C(F)(F)F)c5)c(Cl)c4)c3c2)CC1` please
RESULT: -99%

QUERY: Now consider `O=C(CNCCO)Nc1ccc2ncnc(Nc3ccc(OCc4cccc(F)c4)c(Cl)c3)c2c1` .
RESULT: -98%

QUERY: And then `O=C(CN1CCOCC1)Nc1ccc2ncnc(Nc3ccc(Oc4cccc(C(F)(F)F)c4)c(Cl)c3)c2c1` , what is it?
RESULT: -94%

QUERY: Now give it for `O=C(Nc1ccc2ncnc(Nc3ccc(Oc4cccc(F)c4)c(Cl)c3)c2c1)c1ccc(CNCCO)cc1` too.
RESULT: -98%

QUERY: Then this compound: `O=C(CN1CCOCC1)Nc1ccc2ncnc(Nc3ccc(Oc4cccc(F)c4)c(Cl)c3)c2c1`
RESULT: -97%

QUERY: Could you do the same for `O=C(CN1CCOCC1)Nc1ccc2ncnc(Nc3ccc(OCc4cccc(F)c4)c(Cl)c3)c2c1` , please?
RESULT: -97%

QUERY: Then what about the compound `CS(=O)(=O)CCNCc1ccc(-c2ccc3ncnc(Nc4ccc(OCc5cccc(F)c5)c(Cl)c4)c3c2)o1` ?
RESULT: -99%
